# Tested on: Trichomonas vaginalis
# protocol: In vitro cytostatic activity against Trichomonas vaginalis at a dose of 10 ug/ml after 24 hours
# Type: functional
Would you please tag the item condition met when its Cytostatic activity is 60% or above, and condition not met when it is below?

molecule	assignedClass
CN1C(=O)C[N+](C)(C)c2ccc([N+](=O)[O-])cc21.[Cl-]	condition met
CN1C(=O)CN(CCCCCCl)c2ccc([N+](=O)[O-])cc21	condition met
O=C1Nc2cc([N+](=O)[O-])ccc2N2CCCCC12 (stereo not drawn)	condition not met
O=C1Nc2cc([N+](=O)[O-])ccc2N2Cc3ccccc3CC12 (stereo not drawn)	condition not met
O=C1Nc2cc([N+](=O)[O-])ccc2N2CCCC12 (stereo not drawn)	condition not met
O=C1CN(CCCCCCCl)c2ccc([N+](=O)[O-])cc2N1	condition met
CN1CC(=O)N(C)c2cc([N+](=O)[O-])ccc21	condition met

* * *

# Cytostatic activity values compiled below
# Test system: Trichomonas vaginalis
# protocol: In vitro cytostatic activity against Trichomonas vaginalis at a dose of 1 ug/ml after 48 hours
# Format: functional
readout: Cytostatic activity

molecule	system	readout	result
CN1C(=O)C[N+](C)(C)c2ccc([N+](=O)[O-])cc21.[Cl-]	Trichomonas vaginalis	Cytostatic activity	0.78%
CN1C(=O)CN(CCCCCCl)c2ccc([N+](=O)[O-])cc21	Trichomonas vaginalis	Cytostatic activity	69.96%
O=C1CN(CCCCCCCl)c2ccc([N+](=O)[O-])cc2N1	Trichomonas vaginalis	Cytostatic activity	0%
O=C1Nc2cc([N+](=O)[O-])ccc2N2CCCCC12 (stereo not drawn)	Trichomonas vaginalis	Cytostatic activity	0%
CN1CC(=O)Nc2cc([N+](=O)[O-])ccc21	Trichomonas vaginalis	Cytostatic activity	8.32%
O=C1Nc2cc([N+](=O)[O-])ccc2N2CCCC12 (stereo not drawn)	Trichomonas vaginalis	Cytostatic activity	17.32%
O=C1Nc2cc([N+](=O)[O-])ccc2N2Cc3ccccc3CC12 (stereo not drawn)	Trichomonas vaginalis	Cytostatic activity	0%
CN1CC(=O)N(C)c2cc([N+](=O)[O-])ccc21	Trichomonas vaginalis	Cytostatic activity	0%

* * *

# System: Trichomonas vaginalis
# protocol: In vitro cytostatic activity against Trichomonas vaginalis at a dose of 10 ug/ml after 48 hours
# Format: functional
# Cytostatic activity values compiled below
readout: Cytostatic activity (%)

compound	readout	result
O=C1CN(CCCCCCCl)c2ccc([N+](=O)[O-])cc2N1	Cytostatic activity	30.56
O=C1Nc2cc([N+](=O)[O-])ccc2N2CCCCC12 (stereo unspecified)	Cytostatic activity	75.15
O=C1Nc2cc([N+](=O)[O-])ccc2N2Cc3ccccc3CC12 (stereo unspecified)	Cytostatic activity	37.15
CN1C(=O)C[N+](C)(C)c2ccc([N+](=O)[O-])cc21.[Cl-]	Cytostatic activity	1.13
CN1CC(=O)Nc2cc([N+](=O)[O-])ccc21	Cytostatic activity	13.97
O=C1Nc2cc([N+](=O)[O-])ccc2N2CCCC12 (stereo unspecified)	Cytostatic activity	54.22

* * *

# Tested on: Trichomonas vaginalis
# protocol: In vitro cytostatic activity against Trichomonas vaginalis at a dose of 1 ug/ml after 24 hours
# Format: functional

molecule	Cytostatic activity (%)
O=C1CN(CCCCCCCl)c2ccc([N+](=O)[O-])cc2N1	8.76
CN1C(=O)CN(CCCCCCl)c2ccc([N+](=O)[O-])cc21	0
CN1CC(=O)N(C)c2cc([N+](=O)[O-])ccc21	0
O=C1Nc2cc([N+](=O)[O-])ccc2N2CCCC12 (stereo not drawn)	11.09
CN1CC(=O)Nc2cc([N+](=O)[O-])ccc21	0
CN1C(=O)C[N+](C)(C)c2ccc([N+](=O)[O-])cc21.[Cl-]	0.17
O=C1Nc2cc([N+](=O)[O-])ccc2N2Cc3ccccc3CC12 (stereo not drawn)	0
O=C1Nc2cc([N+](=O)[O-])ccc2N2CCCCC12 (stereo not drawn)	0

The reported numbers originate from ChEMBL document CHEMBL1139586.
